Target: T1, GFP-9S library array, motif 4 ND N98Y;D124Q (synthetic construct, N98Y;D124Q)
T1 chain: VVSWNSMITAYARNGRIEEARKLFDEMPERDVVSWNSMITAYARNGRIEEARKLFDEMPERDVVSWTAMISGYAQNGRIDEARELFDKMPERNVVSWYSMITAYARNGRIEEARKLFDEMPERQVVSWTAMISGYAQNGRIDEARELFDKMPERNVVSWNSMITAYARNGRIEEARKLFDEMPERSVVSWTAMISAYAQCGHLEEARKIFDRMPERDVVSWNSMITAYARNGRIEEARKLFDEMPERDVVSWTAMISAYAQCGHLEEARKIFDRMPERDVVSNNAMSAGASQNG
Assay: high-throughput RNA pulldown from lysate on Ni-NTA beads; HRP: 50 mM Tris pH 8, 150 mM NaCl, 1 mM beta-mercaptoethanol, 50 ug/ml BSA, 3 ug/ml yeast RNA, 0.5% heparin; ITC and FP: Tris pH 8, 200 mM KCl, 5% glycerol; MST: 50 mM Tris pH 8, 200 mM NaCl, 1 mM DTT, BSA, heparin, 0.05% Tween 20
Settings: tags: N-terminal His-eGFP; label: 5' IRDye 800CW

BINDER | Kd [nM]
AUUAUACGUGA (ssRNA) [IR-rpoA-U] | 103
AUUAAACGUGA (ssRNA) [IR-rpoA-A] | 162

Ref: paper PMC8809517
